target: human PCSK9 (Homo sapiens, UniProt Q8NBP7); assay: PCSK9 ligand binding TR-FRET assay (interference with binding of human PCSK9 to human LDLR); details: TR-FRET; human PCSK9 Alexa Fluor 647 / human LDLR extracellular domain-Europium Kryptate; read-out: PCSK9 FRET Assay IC50
Sequence (Q8NBP7 153-692): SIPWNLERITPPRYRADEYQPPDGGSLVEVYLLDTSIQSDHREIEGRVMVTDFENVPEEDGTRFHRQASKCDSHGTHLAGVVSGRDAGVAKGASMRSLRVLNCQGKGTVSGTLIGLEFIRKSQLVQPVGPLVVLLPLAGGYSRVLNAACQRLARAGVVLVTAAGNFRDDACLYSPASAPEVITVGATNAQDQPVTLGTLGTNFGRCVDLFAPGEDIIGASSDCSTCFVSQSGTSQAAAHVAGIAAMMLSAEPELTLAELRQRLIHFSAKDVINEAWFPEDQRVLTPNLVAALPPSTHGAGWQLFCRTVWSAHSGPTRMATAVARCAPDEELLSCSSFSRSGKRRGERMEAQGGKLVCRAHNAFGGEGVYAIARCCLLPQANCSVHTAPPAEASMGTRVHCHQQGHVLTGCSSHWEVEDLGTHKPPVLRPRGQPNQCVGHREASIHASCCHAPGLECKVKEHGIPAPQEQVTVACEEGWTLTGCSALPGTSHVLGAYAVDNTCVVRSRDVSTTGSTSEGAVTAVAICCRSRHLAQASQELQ
Sequence (Q8NBP7 31-152 partner limits assumed): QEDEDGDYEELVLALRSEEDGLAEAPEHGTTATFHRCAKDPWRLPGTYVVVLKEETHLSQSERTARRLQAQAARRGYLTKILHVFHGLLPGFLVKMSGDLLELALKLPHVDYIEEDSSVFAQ
assay_endpoint: pIC50
The quantity pIC50 is defined as the negative base-10 logarithm of the molar concentration.

Before answering, review these 10 worked examples.
• COC[C@@H]1NC(=O)[C@H](CCCN2CCCC2)N(Cc2ccc(Cl)cc2Oc2ccc(-c3cnc(CN(C)C)n3C)cc2)C(=O)C[C@@H](Cc2ccccc2)C(=O)N(C)[C@H]2CCCC[C@@H]2NC(=O)C[C@H](Cc2ccc(Cl)cc2)N(C)C1=O [Compound 251] = 9.10
• COC[C@@H]1NC(=O)[C@H](C)N(Cc2ccc(Cl)cc2Oc2ccc(-c3cncc(C4CCNCC4)c3)cc2)C(=O)C[C@@H](Cc2ccccc2)C(=O)N(C)[C@@H](C)CNC(=O)C[C@H](Cc2ccc(Cl)cc2)N(C)C1=O [Compound 137] = 8.08
• COC[C@@H]1NC(=O)[C@H](C)N(Cc2ccc(Cl)cc2Oc2ccc(-c3cnc(CN4CC5(COC5)C4)n3C)cc2)C(=O)C[C@@H](Cc2ccccc2)C(=O)N(C)[C@@H](C)CNC(=O)C[C@H](Cc2ccc(Cl)cc2)N(C)C1=O [Compound 189] = 8.85
• Cc1c(CN(C)C)ncn1-c1ccc(Oc2cc(Cl)ccc2CN2C(=O)C[C@@H](Cc3ccccc3)C(=O)N(C)[C@H]3CCCC[C@@H]3NC(=O)C[C@H](Cc3ccc(Cl)cc3)N(C)C(=O)[C@H](CO)NC(=O)[C@@H]2C)cc1 [Compound 278] = 8.89
• COC[C@@H]1NC(=O)[C@H](C)N(Cc2ccc(Cl)cc2Oc2ccc(-c3cnc(CN(C)C)n3C)cc2)C(=O)C[C@@H](Cc2ccccc2)C(=O)N(C)C2CC2NC(=O)C[C@H](Cc2ccc(Cl)cc2)N(C)C1=O.O=C(O)C(F)(F)F (mixture of isomers) [Compound 147, trifluoroacetate] = 8.43
• C=CC[C@@H]1CC(=O)N(Cc2ccc(Cl)cc2Oc2ccc(-c3cnc(CN(C)C)n3C)cc2)[C@@H](C)C(=O)N[C@@H](COC)C(=O)N(C)[C@@H](Cc2ccc(Cl)cc2)CC(=O)N[C@H]2CCCC[C@@H]2N(C)C1=O [Compound 110] = 8.92
• COC[C@@H]1NC(=O)[C@H](C)N(Cc2ccc(Cl)cc2Oc2ccc(-c3cnc(CN(C)C)n3C)cc2)C(=O)C[C@@H](Cc2cccc[n+]2[O-])C(=O)N(C)[C@H]2CCCC[C@@H]2NC(=O)C[C@H](Cc2ccc(Cl)cc2)N(C)C1=O [Compound 172] = 8.85
• COC[C@@H]1NC(=O)[C@H](CC(=O)OC(C)(C)C)N(Cc2ccc(Cl)cc2Oc2ccc(-c3cnc(CN(C)C)n3C)cc2)C(=O)C[C@@H](Cc2ccccc2)C(=O)N(C)[C@H]2CCCC[C@@H]2NC(=O)C[C@H](Cc2ccc(Cl)cc2)N(C)C1=O [Compound 237] = 8.85
• COC[C@@H]1NC(=O)[C@H](C)N(Cc2ccc(Cl)cc2Oc2ccc(-c3cnc(CN(C)C)n3C)cc2)C(=O)C[C@@H](Cc2ccc(C(F)F)cc2)C(=O)N(C)[C@@H](C)CNC(=O)C[C@H](Cc2ccc(Cl)cc2)N(C)C1=O [Compound 57] = 8.68
• CCOC(=O)c1ncn(-c2ccc(Oc3cc(Cl)ccc3CN3C(=O)C[C@@H](Cc4ccccc4)C(=O)N(C)[C@@H](C)CNC(=O)C[C@H](Cc4ccc(Cl)cc4)N(C)C(=O)[C@H](COC)NC(=O)[C@@H]3C)cc2)c1C [Compound 149] = 7.73

What does the record list as pIC50 for COC[C@@H]1NC(=O)[C@H](C)N(Cc2ccc(Cl)cc2Oc2ccc(-n3cnc(CN(C)C)c3C)cc2)C(=O)C[C@@H](Cc2ccccn2)C(=O)N(C)[C@H]2CCCC[C@@H]2NC(=O)C[C@H](Cc2ccc(Cl)cc2)N(C)C1=O [Compound 105] ?
9.00

What does the record list as pIC50 for C=Cc1ncc(-c2ccc(Oc3cc(Cl)ccc3CN3C(=O)C[C@@H](Cc4ccccc4)C(=O)N(C)[C@@H](C)CNC(=O)C[C@H](Cc4ccc(Cl)cc4)N(C)C(=O)[C@H](COC)NC(=O)[C@@H]3C)cc2)n1C [Compound 282] ?
8.21

What does the record list as pIC50 for CC=CC[C@@H]1CC(=O)N(Cc2ccc(Cl)cc2Oc2ccc(-c3cnc(CN(C)C)n3C)cc2)[C@@H](C)C(=O)N[C@@H](COC)C(=O)N(C)[C@@H](Cc2ccc(Cl)cc2)CC(=O)N[C@H]2CCCC[C@@H]2N(C)C1=O [Compound 286] ?
9.15

What does the record list as pIC50 for COC[C@@H]1NC(=O)[C@H](C)N(Cc2cccc(F)c2Oc2ccc(-c3cnc(CN(C)C)n3C)cc2)C(=O)C[C@@H](Cc2ccccc2)C(=O)N(C)[C@@H](C)CNC(=O)C[C@H](Cc2ccc(Cl)cc2)N(C)C1=O [Compound 232] ?
8.24

What does the record list as pIC50 for COC[C@@H]1NC(=O)[C@H](CC(F)F)N(Cc2ccc(Cl)cc2Oc2ccc(-c3cnc(CN4CCCC4)n3C)cc2)C(=O)C[C@@H](Cc2ccccc2)C(=O)N(C)[C@@H](C)CNC(=O)C[C@H](Cc2ccc(Cl)cc2)N(C)C1=O [Compound 97] ?
8.66

What does the record list as pIC50 for COC[C@@H]1NC(=O)[C@H](C)N(Cc2ccc(C(F)F)cc2Oc2ccc(-c3cnc(CN(C)C)n3C)cc2)C(=O)C[C@@H](Cc2ccccc2)C(=O)N(C)[C@@H](C)CNC(=O)C[C@H](Cc2ccc(Cl)cc2)N(C)C1=O [Compound 42] ?
7.61

###

target: human PCSK9 (Homo sapiens); assay: PCSK9 ligand binding TR-FRET assay (interference with binding of human PCSK9 to human LDLR); conditions: PCSK9 FRET assay, efficacy (Amax); 100% = 1 uM unlabeled human PCSK9, 0% = DMSO
assay_endpoint: Max % inhibition (%)
Answer with a number only, understood to be in %.

Before answering, review these 4 worked examples.
- COC[C@@H]1NC(=O)[C@H](C)N(Cc2ccc(Cl)cc2Oc2ccc(-c3cnc(C(C)N4CCCC4)n3C)cc2)C(=O)C[C@@H](C)C(=O)N(C)[C@@H](C)CNC(=O)C[C@H](Cc2ccc(Cl)cc2)N(C)C1=O (stereo in doubt) [Compound 103]: 106.00
- COC[C@@H]1NC(=O)[C@H](C)N(Cc2c(Oc3ccc(-c4cnc(CN(C)C)n4C)cc3)cccc2OC(F)F)C(=O)CCC(=O)N(C)[C@H]2CCCC[C@@H]2NC(=O)C[C@H](Cc2ccc(Cl)cc2)N(C)C1=O [Compound 196]: 97.92
- COC[C@@H]1NC(=O)[C@H](CN2CCC2)N(Cc2ccc(Cl)cc2Oc2ccc(-c3cnc(CN(C)C)n3C)cc2)C(=O)C[C@@H](Cc2ccccc2)C(=O)N(C)[C@@H](C)CNC(=O)C[C@H](Cc2ccc(Cl)cc2)N(C)C1=O [Compound 17]: 81.08
- CCc1ccc(CN2C(=O)C[C@@H](Cc3ccccc3)C(=O)N(C)[C@H]3CCCC[C@@H]3NC(=O)C[C@H](Cc3ccc(Cl)cc3)N(C)C(=O)[C@H](COC)NC(=O)[C@@H]2C)c(Oc2ccc(-c3cnc(CN4CC5(COC5)C4)n3C)cc2)c1 [Compound 23]: 96.76

What does the record list as Max % inhibition for COC[C@@H]1NC(=O)[C@H](COC)N(Cc2ccc(Cl)cc2Oc2ccc(-c3cnc(CN(C)C)n3C)cc2)C(=O)C[C@@H](Cc2ccccc2)C(=O)N(C)[C@@H](C)CNC(=O)C[C@H](Cc2ccc(Cl)cc2)N(C)C1=O [Compound 78] ?
97.49

What does the record list as Max % inhibition for COC[C@@H]1NC(=O)[C@H](C)N(Cc2ccc(Cl)cc2Oc2ccc(-c3cnc(CN(C)C)n3C)cc2)C(=O)C[C@@H](Cc2ccccc2)C(=O)N(C)[C@@H](CO)CNC(=O)C[C@H](Cc2ccc(Cl)cc2)N(C)C1=O [Compound 235] ?
100.56

What does the record list as Max % inhibition for COC[C@@H]1NC(=O)[C@H](C)N(Cc2ccc(Cl)cc2Oc2cc(F)c(-c3cnc(CN4CCCC4)n3C)c(F)c2)C(=O)C[C@@H](Cc2ccccc2)C(=O)N(C)[C@@H](C)CNC(=O)C[C@H](Cc2ccc(Cl)cc2)N(C)C1=O [Compound 51] ?
94.86

What does the record list as Max % inhibition for COC[C@@H]1NC(=O)[C@H](CCCN2CCCC2=O)N(Cc2ccc(Cl)cc2Oc2ccc(-c3cnc(CN(C)C)n3C)cc2)C(=O)C[C@@H](Cc2ccccc2)C(=O)N(C)[C@H]2CCCC[C@@H]2NC(=O)C[C@H](Cc2ccc(Cl)cc2)N(C)C1=O [Compound 296] ?
98.03
